ASSAY TARGET: Acetylcholinesterase (Electrophorus electricus, UniProt O42275)
Sequence (O42275 whole entry): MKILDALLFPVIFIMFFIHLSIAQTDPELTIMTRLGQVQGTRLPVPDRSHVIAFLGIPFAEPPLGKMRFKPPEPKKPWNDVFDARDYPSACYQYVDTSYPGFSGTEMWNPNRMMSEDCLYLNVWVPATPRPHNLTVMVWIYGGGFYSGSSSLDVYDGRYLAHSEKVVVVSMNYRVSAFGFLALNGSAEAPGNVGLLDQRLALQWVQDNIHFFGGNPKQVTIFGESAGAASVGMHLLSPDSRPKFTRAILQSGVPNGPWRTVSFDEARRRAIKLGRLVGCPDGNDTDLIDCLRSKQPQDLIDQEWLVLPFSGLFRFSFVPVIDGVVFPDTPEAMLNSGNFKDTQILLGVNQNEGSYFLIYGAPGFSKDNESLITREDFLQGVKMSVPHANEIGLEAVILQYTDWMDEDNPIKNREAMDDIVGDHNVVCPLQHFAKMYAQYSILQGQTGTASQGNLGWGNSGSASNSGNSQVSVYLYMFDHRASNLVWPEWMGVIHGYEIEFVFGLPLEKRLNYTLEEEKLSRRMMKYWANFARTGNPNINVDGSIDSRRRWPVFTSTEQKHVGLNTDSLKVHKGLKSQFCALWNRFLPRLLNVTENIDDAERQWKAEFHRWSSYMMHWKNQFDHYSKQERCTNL
VALUE KIND: log10 of IC50 (log10 of the value in nM)
Could you please treat all values as log10 of IC50 in nM?

COMPOUND STRING | log10 of IC50
O=C(NC1CCN(Cc2ccccc2)CC1)c1cc2cc(Br)ccc2oc1=O | 1.48

Readout log10 of IC50 for O=C(NCCC1CCN(Cc2ccccc2)CC1)c1cc2cc(O)ccc2oc1=O , test system Acetylcholinesterase (Electrophorus electricus, UniProt O42275), was 1.85

Readout log10 of IC50 for O=C(NCCC1CCN(Cc2ccccc2)CC1)c1cc2ccc(O)cc2oc1=O , test system Acetylcholinesterase (Electrophorus electricus, UniProt O42275), was 2.16

Readout log10 of IC50 for O=C(NC1CCN(Cc2ccccc2)CC1)c1cc2ccc(O)cc2oc1=O , test system Acetylcholinesterase (Electrophorus electricus, UniProt O42275), was 3.23

Readout log10 of IC50 for O=C(NC1CCN(Cc2ccccc2)CC1)c1cc2cc([N+](=O)[O-])ccc2oc1=O , test system Acetylcholinesterase (Electrophorus electricus, UniProt O42275), was 2.63

Readout log10 of IC50 for O=C(NC1CCN(Cc2ccccc2)CC1)c1cc2ccccc2oc1=O , test system Acetylcholinesterase (Electrophorus electricus, UniProt O42275), was 3.08

Readout log10 of IC50 for O=C(NCCC1CCN(Cc2ccccc2)CC1)c1cc2cc(Br)ccc2oc1=O , test system Acetylcholinesterase (Electrophorus electricus, UniProt O42275), was 0.30

Readout log10 of IC50 for COc1cccc2cc(C(=O)NCCC3CCN(Cc4ccccc4)CC3)c(=O)oc12 , test system Acetylcholinesterase (Electrophorus electricus, UniProt O42275), was 0.30

Readout log10 of IC50 for O=C(NCCC1CCN(Cc2ccccc2)CC1)c1cc2ccccc2oc1=O , test system Acetylcholinesterase (Electrophorus electricus, UniProt O42275), was 1.41

Readout log10 of IC50 for O=C(NCCC1CCN(Cc2ccccc2)CC1)c1cc2cc([N+](=O)[O-])ccc2oc1=O , test system Acetylcholinesterase (Electrophorus electricus, UniProt O42275), was -0.52

Readout log10 of IC50 for COc1ccc2cc(C(=O)NC3CCN(Cc4ccccc4)CC3)c(=O)oc2c1 , test system Acetylcholinesterase (Electrophorus electricus, UniProt O42275), was 2.26

Readout log10 of IC50 for COc1cccc2cc(C(=O)NC3CCN(Cc4ccccc4)CC3)c(=O)oc12 , test system Acetylcholinesterase (Electrophorus electricus, UniProt O42275), was 2.80

Readout log10 of IC50 for COc1ccc2cc(C(=O)NCCC3CCN(Cc4ccccc4)CC3)c(=O)oc2c1 , test system Acetylcholinesterase (Electrophorus electricus, UniProt O42275), was 0.70

* * *

ASSAY REMARKS: Selectivity index, ratio of IC50 for equine serum BChE to IC50 for electric eel AChE
VALUE KIND: Ratio IC50
Number only, no unit.

COMPOUND STRING | VALUE KIND | RECORDED VALUE
O=C(NCCC1CCN(Cc2ccccc2)CC1)c1cc2ccccc2oc1=O | Ratio IC50 | 14
O=C(NCCC1CCN(Cc2ccccc2)CC1)c1cc2cc(O)ccc2oc1=O | Ratio IC50 | 222

Please turn your attention to the following entry.
For O=C(NC1CCN(Cc2ccccc2)CC1)c1cc2ccc(O)cc2oc1=O the compound record lists Ratio IC50 as 32
